# System: Male albino mice
# protocol.notes: Acute toxicity, single intraperitoneal injection (Example 19)
# Format: in vivo
# condition: single i.p., 14 days
Recorded Calculated LD90 for the following compounds
Note: unit mg/kg is implicit; provide only the numeric part.

Reference set (3 entries):
1) O.O.O=C([O-])C[N-]CC(=O)O.[NH-]C1CCCCC1[NH-].[Pt]	155
2) NC1CCCCC1N.O.O=C1OC(C(O)CO)C([O-])=C1O.O=C1OC(C(O)CO)C([O-])=C1O.[Pt+2] (stereo not drawn) [Compound 3, cis-bis-ascorbato(DACH)Pt(II).1H2 O]	150
3) N[C@H]1CCCC[C@@H]1N.O=C1O[C@H]([C@@H](O)CO)C([O-])=C1O.O=C1O[C@H]([C@@H](O)CO)C([O-])=C1O.[Pt+2]	125

Okay, now this compound:
Sure, the documented Calculated LD90 for `NC1CCCCC1N.O=C1O[C@H]([C@@H](O)C(=O)[O-])[C@H](O)[C@H]1O.O=C1O[C@H]([C@@H](O)C(=O)[O-])[C@H](O)[C@H]1O.[Pt+2]` is 185

----------
# Tested on: L1210 cells
# protocol.notes: In vivo anti-tumor activity, L1210, single i.p. injection
# Design: species or system BDF1 mice
# condition: single i.p., 100 mg/kg
# Procedure: About 24 hours after inoculation of the cells, the mice were injected intraperitoneally with varying dosages of complexes of the present invention. […] Long term survival signifies that animals were alive 60 days after inoculation with L1210 cells.
measured.parameter: % T/C

1. NC1CCCCC1N.O=C([O-])C1CC(O)CN1.O=C([O-])C1CC(O)CN1.[Pt+2] (mixture of isomers)	Toxic
2. NC1CCCCC1N.O.O=C1CC(C(=O)[O-])C(C(=O)[O-])O1.[Pt+2] (racemic)	Toxic
3. NC1CCCCC1N.O=C1O[C@H]([C@@H](O)C(=O)[O-])[C@H](O)[C@H]1O.O=C1O[C@H]([C@@H](O)C(=O)[O-])[C@H](O)[C@H]1O.[Pt+2]	Toxic
